System: Tov112D
PROTOCOL: Primary qHTS to identify gynecologic anti-cancer compounds using libraries of approved drugs and bioactive compounds (AID 1345084); note: nearly all actives have a fitted effect of over 55% in size
SETUP_CONDITIONS: Gynecologic cancer cell panel viability, ATPlite luminescence, 48 h; series mostly up to 57.5 µM
Records with an inconclusive call do not appear. Activity calls are given as the source filed them. Calls come from the whole dose curve; as a rule, active = well fitted cell-killing curve with a large enough effect; inconclusive = small, poorly fitted or top-dose-only effect, or effect the other way; inactive = flat fitted curve, though single readings scatter.
Output constraint: value belongs to yes = active, no = inactive

Solved entries:
{"COMPOUND": "CC1(C)CC2=C3C=CC4C5(C)CCC(O)C(C)(C)C5CCC4(C)C3(C)CCC2(C)C(O)C1 (stereo unspecified)", "LABEL_CLASS": "no"}
{"COMPOUND": "O=C1NC(=O)C(c2cn(-c3ccccc3)nc2-c2ccc(F)cc2)N1 (stereo unspecified)", "LABEL_CLASS": "no"}
{"COMPOUND": "O=C(O)CC1CCC(c2ccc(-c3ccc4nc(C(=O)NCc5ccc(OC(F)(F)F)cc5)cn4c3)cc2)CC1 (stereo unspecified)", "LABEL_CLASS": "no"}
{"COMPOUND": "CC1CC2OC3(OC2C(C)(C)O)C1C1(C)CCC24CC25CCC(O[C@@H]2OC[C@@H](O)[C@H](O)[C@H]2O)C(C)(C)C5CC=C4C1(C)C3O (stereo partly specified)", "LABEL_CLASS": "no"}
{"COMPOUND": "O=C(c1cccc(Cl)c1F)N1CCN(Cc2cccc(Nc3nccs3)n2)CC1", "LABEL_CLASS": "yes"}
{"COMPOUND": "C=C1C(=O)OC2C1CCC(=C)C1CC(OC(C)=O)C(=C)C12 (stereo unspecified)", "LABEL_CLASS": "no"}

input: Could you check what this test reported for COCCOc1cnc2ccn([C@H](C)c3nnc4c(F)cc(-c5cnn(C)c5)cn34)c(=O)c2c1 ?
output: no

Reference source for all entries: PubChem BioAssay (NCATS)
